Target: T1, PACAP-R3 (human, UniProt P41587 24-438)
T1 sequence (looked up): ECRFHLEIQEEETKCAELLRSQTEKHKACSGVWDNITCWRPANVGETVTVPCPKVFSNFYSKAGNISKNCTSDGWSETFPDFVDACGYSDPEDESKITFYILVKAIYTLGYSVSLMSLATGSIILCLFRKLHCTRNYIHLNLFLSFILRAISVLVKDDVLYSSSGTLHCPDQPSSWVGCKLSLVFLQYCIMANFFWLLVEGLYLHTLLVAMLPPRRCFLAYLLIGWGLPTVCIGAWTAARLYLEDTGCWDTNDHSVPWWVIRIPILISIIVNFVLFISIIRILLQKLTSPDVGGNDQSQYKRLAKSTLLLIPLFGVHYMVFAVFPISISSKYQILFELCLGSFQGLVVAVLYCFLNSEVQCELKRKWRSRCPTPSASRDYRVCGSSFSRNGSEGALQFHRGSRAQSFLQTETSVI
Experiment: cell-based or functional assay
No end group written: not given here.
Quick rule for you: R3 EC50, nM (cAMP SPA) under 0.8 nM gets yes (1), anything else gets no (0).

Request: Determine if HSDGIFTDSYSRKRKQMAVKKYLAAVL-NH2 [PAC13] shows R3 EC50, nM (cAMP SPA) strictly lower than 0.8 nM.
Result: yes (1)

Request: // next record HSDAVFTDNYTRLRKQMAAKKYLNSIKNKV [R3P169]
Result: yes (1)

Request: Now the same for HSDKIFTDSYSRYRKQMAVKKYLAAVL-NH2 [PAC4]
Result: no (0)

Request: Same question for HSDAVFTDNYTRLRKQMASKKYLNSIKNRI [rR3P178] please.
Result: yes (1)

Request: Entry to check: HSDGIFTDSYSRYRKQMAVKKKLAAVL-NH2 [PAC22]
Result: no (0)

Request: Same again, this time with HSDAVFTDNYTRLRKQMAAKKYLNSIKNKS [R3P167]
Result: no (0)

Request: Now give it for HSDAVFTDNYTRLRKQMAKKKYLNSIPNRI [rR3P181] too.
Result: no (0)
